Below, each entry is listed with its recorded apparent KD of MS2 coat protein.
System: MS2 coat protein
Assay: apparent KD of MS2 coat protein; designed switch direction (-1 OFF switch, 1 ON switch): -1; higher = weaker reporter binding
Details: input ligand: none
Reply with just the number (in nM).

CUGUUCCAUGUAGGAUAUGCAUAUUCUCAUUAUGCAGAAGGACAUGAGGAUCACCCAUGUAUGUUAUUAUUAUAUGUUACAUGU [Design 3] (Eterna round: R96, puzzle: Exclusion NG 1)	64.9
UUUUACAGGCUUAGAUCCUACAUGAGGAUCACCCAUGUGGAGGCGUGUCGUGAGACAUGCCUCUAAGCUCGUCUUGU [JL TOV1 3.74] (Eterna round: R97, puzzle: Sensor, turn-off variant 1)	103
GUGUUACAAGUGAGGAUAUCUGCUUUGGUAGAAGCGGAGAAGGCACAUGAGGAUCACCCAUGUCAGGAGUCCAU [Eternabot (L2) Solution 20] (Eterna round: R97, puzzle: Brourd's mod of Exclusion 4)	59.3
AGCGAGGCAGGAUAUACAUGAGGAUCACCCAUGUACUUGUAUGGCGUGGAACAUCGUGGUAGAAGGGCCGCGCC [EX3 #79] (Eterna round: R97, puzzle: Exclusion 3)	23.7

# context switch: different sequence, same apparent KD of MS2 coat protein
Req: Need apparent KD of MS2 coat protein, item AAAUUGUGAGGAUAUUCGUAGUACACGGAGACGUGUAUUACGGAGAAGGCACAUGAGGAUCACCCAUGUUCCUU [jl-ex4-13 Eli mod] (Eterna round: R97, puzzle: Exclusion 4)
Resp: 19.1

====

System: MS2 coat protein
Experiment: apparent KD of MS2 coat protein; designed switch direction (-1 OFF switch, 1 ON switch): -1; higher = weaker reporter binding
Settings: Eterna round: R95; input ligand: microRNA oligo, concentration not stated
Everything with apparent KD of MS2 coat protein lower than 20 nM is 0 (no); everything else, including exactly 20 nM, is 1 (yes).

Solved entries (count: 3):
CACCAGCGAGGAUAUACACGUGGUCUCCACUCCCGGUGGUAACAUGAGGAUCACCCAUGUAGAAGGCGCAACAU [Gecedi] (puzzle: Exclusion 2)	1 (yes)
UAUUAGUGAGGAUAUGAGUCGUAGAACAAUAGUACUACGUCUCAGAAGGUACAUGAGGAUCACCCAUGUUUCUC [Fiskers Ex 4 Super Stable 44 mod 33] (puzzle: Exclusion 4)	0 (no)
GUGUAGUCAGGAUAUACAUGAGGAUCACCCAUGUGAAUAAGAUAGAAUAAGAUAAAGUGUAGAAGGGACAGUGU [Excluse me!!! 4 - Jieux - Exclusion 3] (puzzle: Exclusion 3)	1 (yes)

Req: Does UCGGCGCGAGGAUAUACGUUUGCUUUUUUUCGUUUUUGUGUACAUGAGGAUCACCCAUGUAGAAGGCGCGCCGC [Apr-15 SS2-20] (puzzle: Exclusion 2) have a reported apparent KD of MS2 coat protein of at least 20 nM?
Resp: 0 (no)

Req: Does GGCCCUAAGGUCAGAUCCACAAGCUUUUUGCUCGUUUUAACAUGAGGAUCACCCAUGUCUAGUGGAUUUGAUCCUCU [Sensor v3, turn-off variant 2 (MOD of Indiso v.8)] (puzzle: Sensor v3, turn-off variant 2) have a reported apparent KD of MS2 coat protein of at least 20 nM?
Resp: 0 (no)

====

System: MS2 coat protein
Experiment: apparent KD of MS2 coat protein; designed switch direction (-1 OFF switch, 1 ON switch): -1; higher = weaker reporter binding
Conditions: Eterna round: R95; input ligand: none
Below, each entry is listed with its recorded apparent KD of MS2 coat protein.
Reply with just the number (in nM).

Known results for sequences:
GAUUAUGCGAGCUUUAGGGACAUGAGGAUCACCCAUGUUCGUCUUAUUGGUCUGGGUACACUGACAUACCUAAAUCU [JMF 72] (puzzle: Sensor v3, turn-off variant 1)	32.4
UCAUGUAUGUAGGAUAUCGAUGUCCUCGGACAUCGAGAAGGACGUACAUGAGGAUCACCCAUGUAACUUGCAUG [Exclusion 6 - B - 11:c] (puzzle: Exclusion 6)	23.4
GAAAAGGUAGGAUAUACGAAAAAAAAGGGUAGAAAAAAAACACAUGAGGAUCACCCAUGUAGAAGGACCAAAAA [salish99_ex2_r3_050] (puzzle: Exclusion 2)	34.2

Req: Need apparent KD of MS2 coat protein, item GGUACUAUCACCUGAGUGGUAGUGCAAUAAGCUUGUGAUACAUGAGGAUCACCCAUGUCCUCAUUUGCUCGUCUUAU [JL-sv3-2.26 JL mod] (puzzle: Sensor v3, turn-off variant 2)
Resp: 839

Req: Need apparent KD of MS2 coat protein, item AUUUAGAGAGGAUAUAUAAAGUGAAACAUGAGGAUCACCCAUGUAAUUUUAUGGAUGUAAAUAGAAGGCUCAUUUA [Mat - Exclusion 5 - JL mod - D1] (puzzle: Exclusion 5)
Resp: 30.1

Req: Need apparent KD of MS2 coat protein, item ACUUGCUAUUUGCUCGUCUUAUUUUUGUUUAUUUACUAUACAUGAGGAUCACCCAUGUUAUAUUUAAGGGUGUGAUA [JR_SV3TOV2_Sub074] (puzzle: Sensor v3, turn-off variant 2)
Resp: 259

Req: Need apparent KD of MS2 coat protein, item ACACAGAUAGGAUAUCGGACUAUGGACAUGAGGAUCACCCAUGUGCGUCCAAUGUCCGACCGAGAAGGAUCAACAG [Teesvete] (puzzle: Exclusion 5)
Resp: 77

Req: Need apparent KD of MS2 coat protein, item AGAGGACAUGAGGAUCACCCAUGUAAGGAUAUGCGGAGAGUUUGGAGAGGUCGGGUAGGCAGAAGGUACAGGAG [JR_Exclu1_Sub050] (puzzle: Exclusion 1)
Resp: 89.4

====

Test system: MS2 coat protein
Assay: apparent KD of MS2 coat protein; designed switch direction (-1 OFF switch, 1 ON switch): -1; higher = weaker reporter binding
Conditions: Eterna round: R95; input ligand: microRNA oligo, concentration not stated
value-kind: apparent KD of MS2 coat protein (nM)
Reply with just the number (in nM).

Req: What reported apparent KD of MS2 coat protein corresponds to GAUUGACAUGAGGAUCACCCAUGUGAGGAUAUCGGCUGGACCGUGUUGGCUUGGGUUUCGAGAAGGCGCAUAGG [Exclusion 1 V46] (puzzle: Exclusion 1) on MS2 coat protein?
Resp: 88.2

Req: What reported apparent KD of MS2 coat protein corresponds to AAGAAACAUGAGGAUCACCCAUGUGAGGAUAUGAAAAAUAAAAGAAAAGAAAUAAUAAUCAGAAGGCACAAAGG [Mat - Mod of Hog D9] (puzzle: Exclusion 1) on MS2 coat protein?
Resp: 26.6

Req: What reported apparent KD of MS2 coat protein corresponds to AAUUUACAUGAGGAUCACCCAUGUGAGGAUAUGAUACUAUGUACUUCGGUACAUAGUAUCAGAAGGCAUGUGGG [Ex1-3: 93] (puzzle: Exclusion 1) on MS2 coat protein?
Resp: 19.1

Req: What reported apparent KD of MS2 coat protein corresponds to UUUUUAGUGCUUUUUAAGUACAUGAGGAUCACCCAUGUACUUGUCUGGUGGUCCGGACAAGCUUUUUGCUCGUCUUG [Trying Again] (puzzle: Sensor v3, turn-off variant 1) on MS2 coat protein?
Resp: 35.9

Req: What reported apparent KD of MS2 coat protein corresponds to GGUAGUAUGAGUAGUCCUCAUUGAAGAGAUUAGUAAGAAACAUGAGGAUCACCCAUGUUAGAACAAGCUUUUGCUCA [JR_Sv3TOV2_Sub004] (puzzle: Sensor v3, turn-off variant 2) on MS2 coat protein?
Resp: 45.7

====

System: MS2 coat protein
Assay: apparent KD of MS2 coat protein; designed switch direction (-1 OFF switch, 1 ON switch): 1; higher = weaker reporter binding
Conditions: Eterna round: R95; input ligand: microRNA oligo, concentration not stated
value-kind: apparent KD of MS2 coat protein
Number first, unit second.

Known results for sequences:
AGGAAGGAGGCUGAGGAUAUCGUAAGGAGGACAUGAGGAUCACCCAUGUGUAUAGGAUUGGAGGACGAGAAGGCAGAGGAGUGGG [JR_SS2_Sub049] (puzzle: Same State 2)	25 nM
GGAAUCUCCAGAGAGGAUAUGCGGCGUUAAACAUGAGGAUCACCCAUGUCCUUCGAAUGGGUAACGCAGAAGGCUCUACGGUUCC [Shapeless] (puzzle: Same State 2)	594 nM

Req: Need apparent KD of MS2 coat protein, item CGUCCGGCCUGUGCUGGCCGGUGGCUUGUACAUGAGGAUCACCCAUGUUCUUGUGCUGGCUUUUUGCUCGUCUUGUG [salish99_mir208a_021] (puzzle: Sensor for hsa-mir-208a)
Resp: 18.9 nM

====

Below, each entry is listed with its recorded apparent KD of K4 kissing-loop reporter.
Test system: K4 kissing-loop RNA reporter;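 note: bound reporter read as fluorescence of individual clusters on recovered sequencing chips by microscopy, with normalized cluster intensities fitted with a binding model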
Test: apparent KD of K4 kissing-loop reporter; higher = weaker reporter binding
Conditions: Eterna round: R107; input ligand: theophylline 20 uM
Reply with just the number (in nM).

UCGGGCGGCUGAAGGAGCGGGCGGGCCCGAGUGAUGUUCGGGUGGGCUGUGAGGCCCGGAGCCCAGGUAGGUCGCGGUUCCGCCC [#2 Same State - Arginine B Attempt #28 (HarryS)]	168
AUAGGCUAGCGAAACGCUAGCCUAACAGAUACCAGUCGCGAAAGCGACCCUUGGCAGCUGCUGAGUGAUGUUCAGGUGAAUGAAU	403

# context switch: different sequence, same apparent KD of K4 kissing-loop reporter
Req: Need apparent KD of K4 kissing-loop reporter, item CGUUUAUAGCAGGAUACCAGUACCCAUAAAGUACGUUAAUAGUAGAGUGAUGUUCUAAAGUACCCUUGGCAGCUUCCCGUGACUG [ExTheophylB.U]
Resp: 99.8
